target.of.assay: T1, recombinant human IL-19 (human, UniProt Q9UHD0 25-177)
T1 construct: also called human IL-19 recombinant protein; interleukin-19
T1 sequence: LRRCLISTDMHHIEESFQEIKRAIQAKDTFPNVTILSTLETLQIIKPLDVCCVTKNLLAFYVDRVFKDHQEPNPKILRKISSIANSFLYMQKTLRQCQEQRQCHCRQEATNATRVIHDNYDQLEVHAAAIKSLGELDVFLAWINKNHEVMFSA
assay.details: BLI (Octet Red96), antibody on AMQ biosensor, IL-19 in solution, 25 C, 1:1 fit
Description: Except as noted, all reagents and materials are from ForteBio (Freemont, Calif.). An AMQ biosensor is used to immobilize antibody of interest for analysis. Binding data is processed using standard double-referencing and fit to a 1:1 binding model using Data Analysis v9.0 evaluation software, to determine the association rate (kₒₙ, M⁻¹ s⁻¹ units), dissociation rate (koff, s⁻¹ units), and Rₘₐₓ (nm units). […]
reported.property: pKd
Numbers only, as −log10 of the molar value.

Q: Please report the recorded pKd for rabbit derived IL-19 Ab 1 (R_1) (antibody, V domains shown) VH: QQLEESGGGLVQPEGSLTLTCTASGFSFSSSYWICWVRQAPGKGLEWLACIDTGVSGDTYYANWAEGRFTISKTSSTTVTLQMTSLTAADTATYFCARDIFGSAIDNSLWGPGTLVTVSS VL: AIDMTQTPASVSEPVGGTVTIKCQASQSISSYLAWYQQKPGQPPKLLIYSASTLASGVPSRFRGSGSGREFTLTISDLECADAATYYCQCHYHGSSYWDNSFGGGTEVVVK .
A: 9.51
